Origin of the recorded values: patent US5358950A

# Test system: adrenal angiotensin II receptors
# experiment_notes: Displacement of radiolabelled ligand [^125 I]-SIAII specifically bound to rat adrenal angiotensin II receptors
# Assay type: binding
# cond: 1E-5M, rat adrenal homogenate, 60 min at 25° C., 10 µM
Please provide measured % displacement of the labelled ligand for the entries that follow.
One number for each entry, in %.

Consider the reported % displacement of the labelled ligand for these compounds:
CCCc1nc(C)n2nc(N)nc2c1Cc1ccc(-c2ccccc2-c2nnn[nH]2)cc1	71
CCCc1nc(C)n2nc(CC)nc2c1Cc1ccc(-c2ccccc2-c2nnn[nH]2)cc1	67
CCCc1nc(C)n2nc(S)nc2c1Cc1ccc(-c2ccccc2-c2nnn[nH]2)cc1	75

// for each compound in input: emit % displacement of the labelled ligand
1. CCCc1nc(C)n2nc(COC)nc2c1Cc1ccc(-c2ccccc2-c2nnn[nH]2)cc1
2. CCCc1nc(C)n2[nH]c(=O)nc2c1Cc1ccc(-c2ccccc2-c2nnn[nH]2)cc1
3. CCCc1nc(CC)n2[nH]c(=O)nc2c1Cc1ccc(-c2ccccc2-c2nnn[nH]2)cc1
4. CCCc1nc(C)n2c(=O)[nH]nc2c1Cc1ccc(-c2ccccc2-c2nnn[nH]2)cc1
5. CCCCc1nc(C)n2[nH]c(=O)nc2c1Cc1ccc(-c2ccccc2-c2nnn[nH]2)cc1

1: 69; 2: 60; 3: 61; 4: 66; 5: 60

###

# Tested on: adrenal angiotensin II receptors
# experiment_notes: Displacement of radiolabelled ligand [^125 I]-SIAII specifically bound to rat adrenal angiotensin II receptors
# Format: binding
# cond: 1E-7M, rat adrenal homogenate, 60 min at 25° C., 0.1 µM
experimental_endpoint: % displacement of the labelled ligand (%)
Give bare numbers, in %.

// for each compound in input: emit % displacement of the labelled ligand
1. CCCc1nc(C)n2c(=O)[nH]nc2c1Cc1ccc(-c2ccccc2-c2nnn[nH]2)cc1 [Example 19]
2. CCCc1nc(C)n2nc(COC)nc2c1Cc1ccc(-c2ccccc2-c2nnn[nH]2)cc1 [Example 152]
3. CCCc1nc(C)n2nc(CC(=O)OCC)nc2c1Cc1ccc(-c2ccccc2-c2nnn[nH]2)cc1 [Example 146]
4. CCCCc1nc(C)n2c(=O)[nH]nc2c1Cc1ccc(-c2ccccc2-c2nnn[nH]2)cc1 [Example 36]
5. CCCc1nc(C)n2c(=O)n(CCO)nc2c1Cc1ccc(-c2ccccc2-c2nnn[nH]2)cc1 [Example 25]
6. CCCc1nc(C)n2ncnc2c1Cc1ccc(-c2ccccc2-c2nnn[nH]2)cc1 [Example 71]

48
57
56
43
54
60

Entry CCCc1nc(C)n2nc(C)nc2c1Cc1ccc(-c2ccccc2-c2nnn[nH]2)cc1 [Example 74] under adrenal angiotensin II receptors had % displacement of the labelled ligand of 54
